- Measurement description: in vitro
- Experimental setup: African green monkey
Ends that are not written are not given here.
Measured quantity: CC50 at 24 h

[in] Report CC50 at 24 h, nothing else, for this sequence: WTAVQMAVFIHNFKRK [Codivir]
[out] 43.5 µM

###

- System: SARS-CoV2
- Experimental setup: 24 h
Ends that are not written are not given here.
Measured quantity: EC50 (µM)
# number only, unit µM dropped from output

[in] Report EC50, nothing else, for this sequence: WTAVQMAVFIHNFKRK [Codivir]
[out] 12.5
